B1: SAM and SH3 domain-containing protein 1, residues 630 to 700; numbered along this chain, O94885 (parent)
chain: GRPPQPKSVEDLLDRINLKEHMPTFLFNGYEDLDTFKLLEEEDLDELNIRDPEHRAVLLTAVELLQEYDSN

Variants of: B1
ASSAY COMMENT: abundance fitness (aPCA) (normalised: wild type 0, dead -1); higher = more abundant; growth selection in yeast, the domain comes from the species named
CONDITION DETAILS: Homo sapiens
The following variants are listed with their measured abundance fitness values.

Field: example entries. Status: answers known.
GRPPQPKSVEDLLDRINLKEHMPTFLFNGYEDLDTFKLLEEEDLDELNIRDPEHTAVLLTAVELLQEYDSN [R55T] ... -0.89
GRPDQPKSVEDLLDRINLKEHMPTFLFNGYEDLDTFKLLEEEDLDELNIRDPEHRAVLLTAVELLQEYDSN [P4D] ... 0.343
GRPPQPKSVEDLLDRINLKEHMPTFLFNGYEDLDTFKLLEEEDLDELNIRDPEHRAVLGTAVELLQEYDSN [L59G] ... -0.511
GRPPQPKSVEDLLDRINLKEHMPTFLFNGYDDLDTFKLLEEEDLDELNIRDPEHRAVLLTAVELLQEYDSN [E31D] ... 0.129
GRPPFPKSVEDLLDRINLKEHMPTFLFNGYEDLDTFKLLEEEDLDELNIRDPEHRAVLLTAVELLQEYDSN [Q5F] ... 0.068
GRPIQPKSVEDLLDRINLKEHMPTFLFNGYEDLDTFKLLEEEDLDELNIRDPEHRAVLLTAVELLQEYDSN [P4I] ... 0.058
GRPPQPKSVEDLLDRINLKEHMPTFLFNGYEDLDTFKNLEEEDLDELNIRDPEHRAVLLTAVELLQEYDSN [L38N] ... 0.054
GRPPQPKSVEDLLFRINLKEHMPTFLFNGYEDLDTFKLLEEEDLDELNIRDPEHRAVLLTAVELLQEYDSN [D14F] ... -0.734
GRPPQPKSVEDLLDRINLKEHMPTALFNGYEDLDTFKLLEEEDLDELNIRDPEHRAVLLTAVELLQEYDSN [F25A] ... -0.837
GRPPQPKSVEDLLDRINLKIHMPTFLFNGYEDLDTFKLLEEEDLDELNIRDPEHRAVLLTAVELLQEYDSN [E20I] ... -0.244

Specify abundance fitness for GRPPQPKSVEDLLDRINTKEHMPTFLFNGYEDLDTFKLLEEEDLDELNIRDPEHRAVLLTAVELLQEYDSN [L18T] and stop.
-0.73

Return abundance fitness for the following variant: GRPPQPKSVEDLLDRINLKEHMPTFLFNGYEDLDTFKLLGEEDLDELNIRDPEHRAVLLTAVELLQEYDSN [E40G]
0.171

Report measured abundance fitness; entry is GRPPQPKSVEDLLDRINLKEHDPTFLFNGYEDLDTFKLLEEEDLDELNIRDPEHRAVLLTAVELLQEYDSN [M22D]
-0.749
